assayed.target: T1, EsCas13d, nuclease-dead (Eubacterium siraeum, UniProt B0MS50, R295A;H300A;R849A;H854A)
T1 sequence: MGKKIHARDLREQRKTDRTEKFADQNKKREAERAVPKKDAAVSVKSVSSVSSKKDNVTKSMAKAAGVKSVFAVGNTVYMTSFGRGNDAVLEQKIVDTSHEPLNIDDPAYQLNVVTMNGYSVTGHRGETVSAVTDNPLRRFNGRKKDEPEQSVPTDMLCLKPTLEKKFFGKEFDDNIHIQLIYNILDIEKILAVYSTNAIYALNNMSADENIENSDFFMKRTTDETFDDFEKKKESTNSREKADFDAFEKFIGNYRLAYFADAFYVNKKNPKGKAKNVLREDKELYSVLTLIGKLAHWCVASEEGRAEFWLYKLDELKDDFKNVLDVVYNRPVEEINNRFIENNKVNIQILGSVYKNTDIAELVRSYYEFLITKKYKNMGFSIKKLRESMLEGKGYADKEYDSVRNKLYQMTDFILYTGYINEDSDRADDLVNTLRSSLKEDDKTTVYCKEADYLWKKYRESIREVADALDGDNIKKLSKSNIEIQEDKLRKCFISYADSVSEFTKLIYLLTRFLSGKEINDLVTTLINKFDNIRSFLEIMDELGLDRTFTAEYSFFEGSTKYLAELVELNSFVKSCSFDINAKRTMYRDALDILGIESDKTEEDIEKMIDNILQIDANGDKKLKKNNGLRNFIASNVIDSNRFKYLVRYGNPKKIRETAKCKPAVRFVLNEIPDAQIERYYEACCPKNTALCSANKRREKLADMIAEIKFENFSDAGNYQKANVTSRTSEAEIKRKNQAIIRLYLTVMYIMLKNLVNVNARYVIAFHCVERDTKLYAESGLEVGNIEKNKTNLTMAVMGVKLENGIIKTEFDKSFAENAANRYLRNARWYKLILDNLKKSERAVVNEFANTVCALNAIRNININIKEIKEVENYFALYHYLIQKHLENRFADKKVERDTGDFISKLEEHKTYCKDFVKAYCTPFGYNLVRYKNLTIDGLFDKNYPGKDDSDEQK
test.details: crRNA (strand 1, pre-loaded); Mg2+; 40 mM Tris-HCl pH 7.5, 150 mM NaCl, 6 mM MgCl2, 1 mM DTT, 0.1% Tween-20, 0.2 mg/ml BSA; 25 C; 10 min per concentration, then washed
condition.details: tags: His6-TwinStrep-SUMO cleaved; N-terminal SNAP kept (SNAP-Surface 488); label: 3' end held by stalled T7 RNA polymerase
property.name: Kd (nM)

>>> recorded_number("target 1 MT 5'PFS AAG 3'PFS CAA (mixed) RNA 1: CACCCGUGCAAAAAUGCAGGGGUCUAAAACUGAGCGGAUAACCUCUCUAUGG RNA 2: GGGAAUGGAUCCACAUCUACGAAUUCAAGCCAUAGAGAGGUUAUCCGCUCACAAAGAUCGGAAGAGCACACGU")
59
>>> recorded_number("target 3 C6U,U10C (mixed) RNA 1: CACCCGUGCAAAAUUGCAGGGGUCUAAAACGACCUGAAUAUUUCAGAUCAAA RNA 2: GGGAAUGGAUCCACAUCUACGAAUUCGUUUUUGAUCUGAAACAUUUAGGUCUGCAGAUCGGAAGAGCACACGU")
88
